# assayProtocol: Pharmacokinetics of zhangnan-5 in mice
# Assay type: in vivo
# testContext: both sexes, BlebC, mouse, oral, 100 mg/kg single dose, plasma, average +/− standard deviation, read-out: T½ (converted)
measurementLabel: half-life

What does the record list as half-life for C=C(C)C1CCC2(C(=O)O)CCC3(C)C(CCC4C5(C)CCC(=O)C(C)(CO)C5CCC43C)C12 (stereo not shown) ?
11.5 h

----------
# Tested on: normal mice fibroblast (MEF)
# assayProtocol: MTT cytotoxicity, normal cell strain
# Format: cell-based, mouse
# testContext: Normal Mouse Fibroblast, 72 hours, MTT
Measured EC50 by item

# example entries with known answers
compound | measurementLabel | readoutValue
CC(C)C1CCC2(C(=O)O)CCC3(C)C(CCC4C5(C)CCC(O)C(C)(CO)C5CCC43C)C12 (stereo not drawn) [zhangnan-8, 23-hydroxyl-dihydrobetulinic acid] | EC50 | > 30 µM
CC(C)C1CCC2(C(=O)O)CCC3(C)C(CCC4C5(C)CCC(=O)C(C)(CO)C5CCC43C)C12 (stereo not drawn) [zhangnan-7] | EC50 | > 30 µM

Now for a further compound.
What does the record list as EC50 for C=C(C)C1CCC2(C(=O)O)CCC3(C)C(CCC4C5(C)CCC(=O)C(C)(CO)C5CCC43C)C12 (stereo not drawn) [zhangnan-5] ?
> 30 µM

Value source: patent US20120302530A1
